The measured values listed here are drawn from ChEMBL document CHEMBL4184234.

- Species on record: Bos taurus
- assay text: Agonist activity at GPER in BCAEC assessed as increase in eNOS Ser1179 phosphorylation at 1 uM incubated for 10 mins by Western blot relative to untreated (-)-epicatechin
metric name: Activity

The examples below pair each entry with its known result.
CS(=O)(=O)O[C@@H]1Cc2c(O)cc(O)cc2O[C@@H]1c1ccc(O)c(O)c1: 64.8%
C#CCOc1cc(OCC#C)c2c(c1)O[C@H](c1ccc(OCC#C)c(OCC#C)c1)[C@H](OCC#C)C2: 92.6%
C#CCO[C@@H]1Cc2c(O)cc(O)cc2O[C@@H]1c1ccc(O)c(O)c1: 137%

Field: next compound
Request: Quick check: Activity of C#CCOc1cc(OCC#C)c2c(c1)O[C@H](c1ccc(OCC#C)c(OCC#C)c1)[C@H](O)C2 ?
Result: 111%
